From: patent US8889878B2

- System: armyworm (Spodoptera frugiperda)
- method_summary: Spodoptera frugiperda test (SPODFR spray treatment), Example 15
- Format: in vivo
- measurement_context: application rate 100 g/ha, maize leaf discs sprayed, after 7 days
Listed here: items and their measured efficacy in %.
Write it as a number; the unit % goes unstated.

compound	value_measured
C#CC(C)NC(=O)c1ccc(/C=C/C(=O)NC(c2cccc(C(F)(F)F)c2)C(F)(F)F)cc1Cl (stereo not drawn)	100
O=C(/C=C/c1ccc(C(=O)Nc2cc(Cl)ccn2)c(Cl)c1)NC(c1cccc(C(F)(F)F)c1)C(F)(F)F (stereo not drawn)	100
CN(C)NC(=O)c1ccc(/C=C/C(=O)NC(c2cccc(C(F)(F)F)c2)C(F)(F)F)cc1C(F)(F)F (stereo not drawn)	100
N#Cc1ccc(NC(=O)c2ccc(/C=C/C(=O)NC(c3cccc(C(F)(F)F)c3)C(F)(F)F)cc2Cl)nc1 (racemic)	100
O=C(/C=C/c1ccc(C(=O)N(Cc2cccnc2)C2CC2)c(C(F)(F)F)c1)NC(c1cccc(C(F)(F)F)c1)C(F)(F)F (stereo not drawn)	100

Task: Provide the documented efficacy in % with armyworm (Spodoptera frugiperda) as the system for CCC(=O)NCc1ccc(/C=C/C(=O)NC(c2ccc(F)c(Cl)c2)C(F)(F)F)cc1F (stereo not drawn)
Output: 100

Task: What do you get for CCC(=O)NCc1ccc(/C=C/C(=O)NC(c2ccc(F)c(C(F)(F)F)c2)C(F)(F)F)cc1C(F)(F)F (stereo not drawn) ?
Output: 100

Task: What do you get for CC(NC(=O)c1ccc(/C=C/C(=O)NC(c2cccc(C(F)(F)F)c2)C(F)(F)F)cc1Br)C(F)(F)F (stereo not drawn) ?
Output: 100

Task: What do you get for O=C(/C=C/c1ccc(C(=O)NC(CF)CF)c(C(F)(F)F)c1)NC(c1cccc(C(F)(F)F)c1)C(F)(F)F (stereo not drawn) ?
Output: 100

====

- method_summary: logP by HPLC on reverse-phase column (EEC Directive 79/831 Annex V.A8)
- Type: physicochemical
- measurement_context: reverse-phase C18 HPLC column, pH 2.7, HPLC, C18 reverse phase, 43° C., acidic range pH 2.7, calibration with alkan-2-ones
readout_name: chromatographic logP
Enter a number only.

compound	readout_name	value_measured
N#Cc1cc(/C=C/C(=O)O)ccc1-n1cncn1	chromatographic logP	0.97
N#Cc1ccc2oc(C(=O)NC(c3cccc(C(F)(F)F)c3)C(F)(F)F)cc2c1 (centres unmarked) [Ic-1]	chromatographic logP	3.63
O=C(/C=C/c1ccc(C(=O)O)c(Br)c1)NC(c1cccc(C(F)(F)F)c1)C(F)(F)F (centres unmarked)	chromatographic logP	3.15
O=C(/C=C/c1ccc(C(=O)NC2CC2)c(C(F)(F)F)c1)NC(c1cc(Cl)cc(C(F)(F)F)c1)C(F)(F)F (centres unmarked) [Ia-40]	chromatographic logP	3.68

Task: Please look up its chromatographic logP: CCOC(=O)c1cc2cc(C(=O)NC(c3cccc(C(F)(F)F)c3)C(F)(F)F)n(C)c2cc1Cl (centres unmarked)
Output: 4.74

Task: What do you get for CCOC(=O)c1cc2cc(C(=O)NC(c3cccc(C(F)(F)F)c3)C(F)(F)F)[nH]c2cc1Cl (centres unmarked) ?
Output: 4.12

Task: What do you get for `O=C(O)/C=C/c1cc(C(F)(F)F)c(C(=O)NC2CC2)cn1` ?
Output: 1.26

Task: What do you get for `FC(F)(F)c1cc(Br)ccc1CNc1ccccn1` ?
Output: 1.57

Task: What do you get for O=C(O)c1ccc2cc(C(=O)NC(c3cccc(C(F)(F)F)c3)C(F)(F)F)oc2c1 (centres unmarked) ?
Output: 3.1

Task: What do you get for N#Cc1ccc(/C=C/C(=O)NC(c2cccc(C(F)(F)F)c2)C(F)(F)F)cc1 (centres unmarked) [Ia-8] ?
Output: 3.54

Task: What do you get for `O=C(c1cc(F)cc(C(F)(F)F)c1)C(F)(F)F` ?
Output: 2.54
